Test system: COLO-678 (Colorectal Carcinoma)
assay.summary: combination Emax (second highest fraction inhibited in the dose matrix, 72 h); higher = more inhibition; extreme values may be limits of the assay
reported.endpoint: combination Emax

| molecule | target.system | reported.endpoint | measured.value |
| --- | --- | --- | --- |
| Cc1cc2ncnn2cc1Nc1ncc2c(n1)n(C1CCOCC1)c(=O)n2C [AZD7648] + CCN(CCO)CCCOc1ccc2c(Nc3cc(CC(=O)Nc4cccc(F)c4)[nH]n3)ncnc2c1 [AZD2811] (first compound max 10 µM, 7x7, partner max 1 µM) | COLO-678 (Colorectal Carcinoma) | combination Emax | 0.152 |
| COc1nnc2ccc(N3CCC(c4ccc(OCCN5CCN(C)C(=O)[C@H]5C)cc4)CC3)nn12 [AZD5153] + CN(CC[C@H](CSC1=CC=CC=C1)NC2=C(C=C(C=C2)S(=O)(=O)NC(=O)C3=CC=C(C=C3)N4CCC(CC4)[C@H](C5=CC=CC=C5C6=CC=C(C=C6)Cl)O)S(=O)(=O)C(F)(F)F)CCO [AZD4320] (first compound max 1 µM, 7x7, partner max 1 µM) | COLO-678 (Colorectal Carcinoma) | combination Emax | 0.459 |
| CC(=O)c1c(C)c2cnc(Nc3ccc(N4CCNCC4)cn3)nc2n(C2CCCC2)c1=O [Palbociclib] + CC1(C)CCC(CN2CCN(c3ccc(C(=O)NS(=O)(=O)c4ccc(NCC5CCOCC5)c([N+](=O)[O-])c4)c(Oc4cnc5[nH]ccc5c4)c3)CC2)=C(c2ccc(Cl)cc2)C1 [Venetoclax] (first compound max 10 µM, 7x7, partner max 1 µM) | COLO-678 (Colorectal Carcinoma) | combination Emax | 0.222 |
| CC1(C)CCC(CN2CCN(c3ccc(C(=O)NS(=O)(=O)c4ccc(NCC5CCOCC5)c([N+](=O)[O-])c4)c(Oc4cnc5[nH]ccc5c4)c3)CC2)=C(c2ccc(Cl)cc2)C1 [Venetoclax] + C=CCn1c(=O)c2cnc(Nc3ccc(N4CCN(C)CC4)cc3)nc2n1-c1cccc(C(C)(C)O)n1 [AZD1775] (first compound max 1 µM, partner max 1 µM) | COLO-678 (Colorectal Carcinoma) | combination Emax | 0.328 |
| Cc1c2c(nn1C)CSCc1cc(n(C)n1)CSc1cc(c3ccccc3c1)OCCCc1c(C(=O)O)n(C)c3c-2c(Cl)ccc13 [AZD5991] + Cn1cnc2c(F)c(Nc3ccc(Br)cc3Cl)c(C(=O)NOCCO)cc21 [Selumetinib] (first compound max 1 µM, 7x7, partner max 3 µM) | COLO-678 (Colorectal Carcinoma) | combination Emax | 0.423 |
| Cc1c2c(nn1C)CSCc1cc(n(C)n1)CSc1cc(c3ccccc3c1)OCCCc1c(C(=O)O)n(C)c3c-2c(Cl)ccc13 [AZD5991] + C=CCn1c(=O)c2cnc(Nc3ccc(N4CCN(C)CC4)cc3)nc2n1-c1cccc(C(C)(C)O)n1 [AZD1775] (first compound max 1 µM, partner max 1 µM) | COLO-678 (Colorectal Carcinoma) | combination Emax | 0.391 |
| COc1cccc(OCCCN)c1-c1cc(Nc2cnc(C#N)cn2)n[nH]1 [Prexasertib] + O=C(c1cc(Cc2n[nH]c(=O)c3ccccc23)ccc1F)N1CCN(C(=O)C2CC2)CC1 [Olaparib] (first compound max 1 µM, 7x7, partner max 10 µM) | COLO-678 (Colorectal Carcinoma) | combination Emax | 0.169 |
| CC1(C)CCC(CN2CCN(c3ccc(C(=O)NS(=O)(=O)c4ccc(NCC5CCOCC5)c([N+](=O)[O-])c4)c(Oc4cnc5[nH]ccc5c4)c3)CC2)=C(c2ccc(Cl)cc2)C1 [Venetoclax] + Cn1cnc2c(F)c(Nc3ccc(Br)cc3Cl)c(C(=O)NOCCO)cc21 [Selumetinib] (first compound max 1 µM, 7x7, partner max 3 µM) | COLO-678 (Colorectal Carcinoma) | combination Emax | 0.485 |
| COc1nnc2ccc(N3CCC(c4ccc(OCCN5CCN(C)C(=O)[C@H]5C)cc4)CC3)nn12 [AZD5153] + C=CCn1c(=O)c2cnc(Nc3ccc(N4CCN(C)CC4)cc3)nc2n1-c1cccc(C(C)(C)O)n1 [AZD1775] (first compound max 1 µM, partner max 1 µM) | COLO-678 (Colorectal Carcinoma) | combination Emax | 0.531 |
| C[C@@H]1COCCN1c1cc(C2([S@](C)(=N)=O)CC2)nc(-c2ccnc3[nH]ccc23)n1 [AZD6738] + O=C(c1cc(Cc2n[nH]c(=O)c3ccccc23)ccc1F)N1CCN(C(=O)C2CC2)CC1 [Olaparib] (first compound max 10 µM, 7x7, partner max 10 µM) | COLO-678 (Colorectal Carcinoma) | combination Emax | 0.159 |
| CC1(C)CCC(CN2CCN(c3ccc(C(=O)NS(=O)(=O)c4ccc(NCC5CCOCC5)c([N+](=O)[O-])c4)c(Oc4cnc5[nH]ccc5c4)c3)CC2)=C(c2ccc(Cl)cc2)C1 [Venetoclax] + COc1cc(Nc2ncc3c(n2)-c2ccc(Cl)cc2C(c2c(F)cccc2OC)=NC3)ccc1C(=O)O [Alisertib] (first compound max 1 µM, 7x7, partner max 10 µM) | COLO-678 (Colorectal Carcinoma) | combination Emax | 0.181 |
| COc1cc2c(cc1OCCCCCOc1cc3c(cc1OC)C(=O)N1C=C(C)C[C@H]1C=N3)N=C[C@@H]1CC(C)=CN1C2=O [SG3199] + O=C(c1cc(Cc2n[nH]c(=O)c3ccccc23)ccc1F)N1CCN(C(=O)C2CC2)CC1 [Olaparib] (first compound max 0.001 µM, 7x7, partner max 10 µM) | COLO-678 (Colorectal Carcinoma) | combination Emax | 0.13 |
| NC1(C(=O)N[C@@H](CCO)c2ccc(Cl)cc2)CCN(c2ncnc3[nH]ccc23)CC1 [Capivasertib] + C[C@@H]1COCCN1C2=NC(=NC(=C2)C3(CC3)[S@](=N)(=O)C)C4=C5C=CNC5=NC=C4 [AZD6738] (first compound max 10 µM, 7x7, partner max 10 µM) | COLO-678 (Colorectal Carcinoma) | combination Emax | 0.237 |
